Test system: A498
Assay: NCI tumour cell line growth inhibition, 48 h
The source made the active and inactive calls. Cut-off read from the data, not from the text of the source: active = GI50 up to about 1.1 µM and inactive = higher.
Provide the reported GI50 of each item.

Q: Tell me the measured GI50 of OC1(c2ccccc2)CC2CCC(C1)N2CCCC(O)(c1ccccc1)c1ccccc1 (configuration not stated) , please.
Result: 15.5 µM (inactive)

Q: Tell me the measured GI50 of NCCCCCS(=O)(=O)O , please.
Result: > 100 µM (inactive)

Q: Tell me the measured GI50 of COc1cccc([C@@H]2C/C(=N\NC(=O)C(=O)N[C@@H](C)c3ccccc3)c3ccccc3N2)c1 , please.
Result: > 100 µM (inactive)

Q: Tell me the measured GI50 of CO/N=C1/c2sccc2[C@H](NC(=O)C(Cc2ccccc2)NC(=O)OC(C)(C)C)[C@@H]1O (some centres not stated) , please.
Result: > 100 µM (inactive)

Q: Tell me the measured GI50 of C/C(CN1C(=O)c2ccccc2C1=O)=N\NS(=O)(=O)c1ccc2ccccc2c1 , please.
Result: > 100 µM (inactive)

Q: Tell me the measured GI50 of COc1cccc(N2C(=O)C3c4[nH]c5ccccc5c4C4c5ccccc5CCC4C3C2=O)c1 (configuration not stated) , please.
Result: 2.77 µM (inactive)

Q: Tell me the measured GI50 of CN(C)C(=O)C(NCCO)c1ccccc1 (configuration not stated) , please.
Result: > 100 µM (inactive)

Q: Tell me the measured GI50 of O=C(N/C(=C\c1ccc(/C=C(\NC(=O)c2ccccc2)c2nc3ccccc3s2)cc1)c1nc2ccccc2s1)c1ccccc1 , please.
Result: 17.1 µM (inactive)

Q: Tell me the measured GI50 of CC1C(OC2O[C@@H]3O[C@@]4(C)CC[C@H]5[C@H](C)CC[C@@H](C2C)[C@@]35O4)O[C@@H]2O[C@@]3(C)CC[C@H]4[C@H](C)CC[C@@H]1[C@@]24O3 (some centres not stated) , please.
Result: > 50 µM (inactive)

Q: Tell me the measured GI50 of CC1CC(=O)c2c(ccc3c2C(=O)c2cccc(O)c2C3=O)C1 (configuration not stated) , please.
Result: 14 µM (inactive)

Q: Tell me the measured GI50 of O=C(Cn1ccc(=O)[nH]c1=O)Nc1ccc(C(=O)O)c(O)c1 , please.
Result: > 100 µM (inactive)

Q: Tell me the measured GI50 of CCCSc1ccc2[nH]c(N3C(=O)/C(=C/c4ccc(O)c(OC)c4)N=C3c3ccccc3)cc2c1 , please.
Result: 6.35 µM (inactive)

Q: Tell me the measured GI50 of CCOc1ccc(/C=C/c2cc(OC)c(OC)c(OC)c2)cc1 , please.
Result: 0.439 µM (active)

Q: Tell me the measured GI50 of CC12CCC3c4cc(Br)c(O)c(Br)c4CCC3C1CCC2O (configuration not stated) , please.
Result: 18.7 µM (inactive)

Q: Tell me the measured GI50 of CC(=O)N1C(=O)/C(=C\C(=O)c2ccc(Cl)cc2)c2ccccc21 , please.
Result: 19.2 µM (inactive)

Q: Tell me the measured GI50 of COC(=O)/C=C(/OC)[C@H](C)[C@H](/C=C/c1csc(-c2csc(C(C)C)n2)n1)OC , please.
Result: 5.97 µM (inactive)

Q: Tell me the measured GI50 of O=[N+]([O-])/C=C/c1cn(CCCCCCCCCCCCn2cc(/C=C/[N+](=O)[O-])c3ccccc32)c2ccccc12 , please.
Result: > 100 µM (inactive)

Q: Tell me the measured GI50 of O=[N+]([O-])c1ccc2nc(/C(=N/Nc3ccccc3)C(O)c3ccco3)c(O)nc2c1 (configuration not stated) , please.
Result: > 100 µM (inactive)

Q: Tell me the measured GI50 of CSC(=S)N(C)c1nc(N(C)C)s[s+]1 , please.
Result: 44.4 µM (inactive)

Q: Tell me the measured GI50 of CNNC1=NS(=O)(=O)c2cc(C#N)c(Cl)cc2S1 , please.
Result: > 10 µM (inactive)

Q: Tell me the measured GI50 of Cc1cc(/N=N/c2c(O)ccc3ccccc23)ccc1/N=N/c1cccc([N+](C)(C)C)c1 , please.
Result: 44.7 µM (inactive)

Q: Tell me the measured GI50 of CCOC(=O)c1csc(C(CSCc2ccc(OC)cc2)N2C(=O)c3ccccc3C2=O)n1 (configuration not stated) , please.
Result: > 100 µM (inactive)

Q: Tell me the measured GI50 of O=S(=O)(CCBr)CCBr , please.
Result: 6.3 µM (inactive)

Q: Tell me the measured GI50 of CCOC(=O)Oc1ccc2c(c1)c(=O)c1c(NCCCN(CC)CC)ccc3nnn2c31 , please.
Result: 11.1 µM (inactive)

Q: Tell me the measured GI50 of CCc1ccc(Nc2cc(=O)[nH]c(SCc3ccccc3)n2)cc1 , please.
Result: > 100 µM (inactive)

Q: Tell me the measured GI50 of CC1(C)C(=O)/C=C\C(=O)C(C)(C)C2=CC=C(O2)C(C)(C)C(=O)/C=C\C(=O)C(C)(C)C2=CC=C1O2 , please.
Result: > 100 µM (inactive)

Q: Tell me the measured GI50 of O=C(N/N=C\c1c(O)ccc2ccccc12)c1ccncc1 , please.
Result: 2.21 µM (inactive)

Q: Tell me the measured GI50 of O=c1[nH]n(Cc2ccccc2Cl)c2ccccc12 , please.
Result: > 100 µM (inactive)

Q: Tell me the measured GI50 of N=C(N)NS(=O)(=O)c1ccc(NC(=O)c2cccc3c(NNc4ccc(C(=O)O)cc4)c4ccccc4nc23)cc1 , please.
Result: 24.4 µM (inactive)

Q: Tell me the measured GI50 of O=C(O)CSc1nnc(/C=C/c2ccccc2)[nH]1 , please.
Result: > 100 µM (inactive)

Q: Tell me the measured GI50 of Cc1cn(C2CCC(CO)(CF)O2)c(=O)[nH]c1=O (configuration not stated) , please.
Result: > 100 µM (inactive)

Q: Tell me the measured GI50 of CSc1nc(NC2OC(CO)C(O)C(O)C2O)c(N)c(=O)n1C (configuration not stated) , please.
Result: > 100 µM (inactive)

Q: Tell me the measured GI50 of Cc1nc2[nH]ccn2c(=O)c1CCO , please.
Result: > 10 µM (inactive)

Q: Tell me the measured GI50 of CCc1cccc(C(C)C)c1NC(=O)C(=O)C(Cc1nc2ccccc2nc1O)C(=O)OC (configuration not stated) , please.
Result: > 100 µM (inactive)

Q: Tell me the measured GI50 of COc1cccc(/C=C\c2ccc(O)cc2)c1 , please.
Result: 28.3 µM (inactive)

Q: Tell me the measured GI50 of NCCCn1c(Cl)nc2ccccc21 , please.
Result: > 100 µM (inactive)

Q: Tell me the measured GI50 of O[C@H]1[C@H]2c3cc4c(cc3CN3CCC(=C[C@@H]1O)[C@H]23)OCO4 , please.
Result: 2.96 µM (inactive)

Q: Tell me the measured GI50 of CCCCCOC(=O)C(=O)Nc1[nH]nnc1C(N)=O , please.
Result: > 100 µM (inactive)

Q: Tell me the measured GI50 of Cc1c(CCOC=O)c(=O)[nH]c2nncn12 , please.
Result: > 100 µM (inactive)

Q: Tell me the measured GI50 of C=C(Cl)C(C)(Cl)CCC(Cl)C(C)(C)Cl (configuration not stated) , please.
Result: > 100 µM (inactive)

Q: Tell me the measured GI50 of Clc1ccc2nc(-c3ccccc3)nc(Cl)c2c1 , please.
Result: > 100 µM (inactive)

Q: Tell me the measured GI50 of COc1c(C(C)(C)C)cc(CC2C(=O)C=CC2=O)cc1C(C)(C)C , please.
Result: 18 µM (inactive)
